Biological target: human CB1 receptor (Homo sapiens, UniProt P21554)
Construct: expressed in transfected cells; membrane-enriched fractions
Sequence (P21554 whole entry): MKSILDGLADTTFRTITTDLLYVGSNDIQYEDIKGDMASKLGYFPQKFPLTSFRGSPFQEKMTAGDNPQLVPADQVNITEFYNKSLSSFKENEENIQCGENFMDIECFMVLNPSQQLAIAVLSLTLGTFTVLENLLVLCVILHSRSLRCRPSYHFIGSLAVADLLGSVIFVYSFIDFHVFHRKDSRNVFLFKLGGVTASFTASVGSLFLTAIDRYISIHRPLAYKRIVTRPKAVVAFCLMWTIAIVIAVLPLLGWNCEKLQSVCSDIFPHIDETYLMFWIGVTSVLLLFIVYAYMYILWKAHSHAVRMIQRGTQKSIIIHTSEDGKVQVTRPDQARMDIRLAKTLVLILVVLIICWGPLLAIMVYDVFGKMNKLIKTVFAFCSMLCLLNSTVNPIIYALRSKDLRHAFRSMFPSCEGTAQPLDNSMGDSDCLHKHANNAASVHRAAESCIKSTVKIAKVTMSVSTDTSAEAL
Experiment: competitive radioligand binding assay, displacement of [3H]CP55,940, CB1
Details: Table 2; percent inhibition at 10 μM
Decide by inhibition at 10 µM: equal to or exceeding 90% means label 1, less means label 0.

Some solved cases for reference:
- Compound: "O=C(Cn1nc(-c2ccc(Cl)cc2Cl)c(-c2ccc(Cl)cc2Cl)n1)Nc1ccccc1"
  Assay target: "human CB1 receptor (Homo sapiens, UniProt P21554)"
  Class name: "label 1"
- Compound: "Cc1cccc(CNC(=O)Cn2nc(-c3ccc(Cl)cc3)c(-c3ccc(Cl)cc3Cl)n2)c1"
  Assay target: "human CB1 receptor (Homo sapiens, UniProt P21554)"
  Class name: "label 0"
- Compound: "O=C(Cn1nc(-c2ccc(Cl)cc2)c(-c2ccc(Cl)cc2)n1)N1CCCCC1"
  Assay target: "human CB1 receptor (Homo sapiens, UniProt P21554)"
  Class name: "label 0"
- Compound: "O=C(NC12CC3CC(CC(C3)C1)C2)n1nc(-c2ccccc2)c(-c2ccccc2)n1"
  Assay target: "human CB1 receptor (Homo sapiens, UniProt P21554)"
  Class name: "label 0"
- Compound: "CCCCCCNC(=O)n1nc(-c2ccc(Cl)cc2Cl)c(-c2ccc(Cl)cc2Cl)n1"
  Assay target: "human CB1 receptor (Homo sapiens, UniProt P21554)"
  Class name: "label 0"
- Compound: "COC[C@H](NC(=O)Cn1nc(-c2ccc(Cl)cc2Cl)c(-c2ccc(Cl)cc2Cl)n1)[C@@H](O)c1ccccc1"
  Assay target: "human CB1 receptor (Homo sapiens, UniProt P21554)"
  Class name: "label 1"

Say whether CCCCCOC(=O)Cn1nc(-c2ccc(Cl)cc2Cl)c(-c2ccc(Cl)cc2Cl)n1 shows inhibition at 10 µM of 90% or more.
label 0

Can C#CC1(NC(=O)Cn2nc(-c3ccc(Cl)cc3Cl)c(-c3ccc(Cl)cc3Cl)n2)CCCCC1 be said to have inhibition at 10 µM at or above 90%?
label 1

In plain terms: is recorded inhibition at 10 µM at least 90% for CCCCCCNC(=O)n1nc(-c2ccc(Cl)cc2)c(-c2ccc(Cl)cc2)n1 ?
label 0

Given the entry O=C(c1ccccc1)n1nc(-c2ccccc2)c(-c2ccccc2)n1 , answer whether its inhibition at 10 µM meets or surpasses 90%.
label 0

# check: inhibition at 10 µM of CC(NC(=O)Cn1nc(-c2ccc(Cl)cc2)c(-c2ccc(Cl)cc2Cl)n1)c1ccccc1 (stereo not shown) is greater than or equal to 90%
label 1

Hello, I need to know if O=C(Cn1nc(-c2ccc(Cl)cc2Cl)c(-c2ccc(Cl)cc2Cl)n1)NCc1ccccc1 has measured inhibition at 10 µM not below 90%. Thanks!
label 1

====

Molecular target: human CB1 receptor (Homo sapiens)
Construct: expressed in transfected cells; membrane-enriched fractions
Experiment: competitive radioligand binding assay, displacement of [3H]CP55,940, CB1
Settings: Table 2; percent inhibition at 10 μM
Readout name: inhibition at 10 µM (%)
Answers are plain numbers, in %.

- Mol: "CCCCOC(=O)CNC(=O)n1nc(-c2ccc(Cl)cc2)c(-c2ccc(Cl)cc2Cl)n1"
  Assay target: "human CB1 receptor (Homo sapiens)"
  Result unit: "%"
  Numeric readout: 11.8
- Mol: "CCCCCCCNC(=O)n1nc(-c2ccc(Cl)cc2)c(-c2ccc(Cl)cc2)n1"
  Assay target: "human CB1 receptor (Homo sapiens)"
  Result unit: "%"
  Numeric readout: 12.9

// each compound listed below needs its inhibition at 10 µM
1. CCCCCCNC(=O)n1nc(-c2ccc(Cl)cc2)c(-c2ccc(Cl)cc2Cl)n1
2. O=C(Cn1nc(-c2ccc(Cl)cc2)c(-c2ccc(Cl)cc2Cl)n1)NCc1ccccc1F

[10.9, 88.2]
